Test System: type 1 5α-reductase (Homo sapiens)
Construct: Preparation of Human Prostatic and Scalp 5α-reductases; from tissue; host or cells: human scalp (crude nuclear pellet of the homogenate)
Sequence (P18405 whole entry): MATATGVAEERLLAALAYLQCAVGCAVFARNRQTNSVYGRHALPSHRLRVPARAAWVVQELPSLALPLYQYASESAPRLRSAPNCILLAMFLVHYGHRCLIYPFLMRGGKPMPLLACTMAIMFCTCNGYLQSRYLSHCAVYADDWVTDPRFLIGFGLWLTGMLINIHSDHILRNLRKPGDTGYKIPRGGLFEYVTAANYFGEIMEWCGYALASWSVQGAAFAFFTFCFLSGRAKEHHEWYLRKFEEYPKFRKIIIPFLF
Assay Name: 5α-reductase assay, type 1 (human scalp homogenate), inhibition studies
Assay type: biochemical
Can you tell me IC50 for the items I'm about to list?

Consider the reported IC50 for these compounds:
COc1ccccc1NC(=O)[C@H]1CC[C@H]2[C@@H]3CC[C@H]4N(C)C(=O)C=C[C@]4(C)[C@H]3CC[C@]12C = 20 nM
CN1C(=O)C=C[C@]2(C)[C@H]3CC[C@]4(C)[C@@H](C(=O)Nc5cc(C(F)(F)F)ccc5C(F)(F)F)CC[C@H]4[C@@H]3CC[C@@H]12 = 4 nM

Let us move to another entry and its IC50.
Problem: # get_value(readout= IC50, system= type 1 5α-reductase (Homo sapiens)) for `CN1C(=O)C=C[C@]2(C)[C@H]3CC[C@]4(C)[C@@H](C(=O)Nc5ccccc5C(F)(F)F)CC[C@H]4[C@@H]3CC[C@@H]12`
Result: 2 nM

###

Test System: type 2 5α-reductase (Homo sapiens, UniProt P31213)
Construct: Preparation of Human Prostatic and Scalp 5α-reductases; from tissue; host or cells: human prostate (crude nuclear pellet of the homogenate)
Sequence (P31213 whole entry): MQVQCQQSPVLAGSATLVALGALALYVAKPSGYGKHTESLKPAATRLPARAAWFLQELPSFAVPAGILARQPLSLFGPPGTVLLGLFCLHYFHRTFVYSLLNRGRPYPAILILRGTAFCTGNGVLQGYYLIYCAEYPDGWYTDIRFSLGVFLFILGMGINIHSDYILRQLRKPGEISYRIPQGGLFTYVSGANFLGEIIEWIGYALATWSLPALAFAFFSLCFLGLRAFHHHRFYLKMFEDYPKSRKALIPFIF
Assay Name: 5α-reductase assay, type 2 (human prostatic homogenate), inhibition studies
Type: biochemical
Test Conditions: human; conversion of testosterone to DHT; pH 5.5; read-out: IC50 Type 2 5aR
Experimental: Samples of human tissue were pulverized using a freezer mill and homogenized in 40 mM potassium phosphate, pH 6.5, 5 mM magnesium sulfate, 25 mM potassium chloride, 1 mM phenylmethyl-sulfonyl fluoride, 1 mM dithiothreitol (DTT) containing 0.25 M sucrose using a Potter-Elvehjem homogenizer. A crude nuclear pellet was prepared by centrifugation of the homogenate at 1,500× G for 15 min. The crude nuclear pellet was washed two times and resuspended in two volumes of buffer. […]
Attribute Measured: IC50 (nM)
Answers are plain numbers, in nM.

CN(C(=O)[C@H]1CC[C@H]2[C@@H]3CC[C@H]4N(C)C(=O)C=C[C@]4(C)[C@H]3CC[C@]12C)C(c1ccccc1)c1ccccc1 = 0.3

Let us move to another entry and its IC50.
Problem: Requested read-out: IC50. Entry: `CN1C(=O)C=C[C@]2(C)[C@H]3CC[C@]4(C)[C@@H](C(=O)NC(c5ccccc5)c5ccccc5)CC[C@H]4[C@@H]3CC[C@@H]12`
Result: 2

###

Can you tell me pIC50 for the items I'm about to list?
Test System: human androgen receptor (Homo sapiens)
Sequence (P10275 whole entry): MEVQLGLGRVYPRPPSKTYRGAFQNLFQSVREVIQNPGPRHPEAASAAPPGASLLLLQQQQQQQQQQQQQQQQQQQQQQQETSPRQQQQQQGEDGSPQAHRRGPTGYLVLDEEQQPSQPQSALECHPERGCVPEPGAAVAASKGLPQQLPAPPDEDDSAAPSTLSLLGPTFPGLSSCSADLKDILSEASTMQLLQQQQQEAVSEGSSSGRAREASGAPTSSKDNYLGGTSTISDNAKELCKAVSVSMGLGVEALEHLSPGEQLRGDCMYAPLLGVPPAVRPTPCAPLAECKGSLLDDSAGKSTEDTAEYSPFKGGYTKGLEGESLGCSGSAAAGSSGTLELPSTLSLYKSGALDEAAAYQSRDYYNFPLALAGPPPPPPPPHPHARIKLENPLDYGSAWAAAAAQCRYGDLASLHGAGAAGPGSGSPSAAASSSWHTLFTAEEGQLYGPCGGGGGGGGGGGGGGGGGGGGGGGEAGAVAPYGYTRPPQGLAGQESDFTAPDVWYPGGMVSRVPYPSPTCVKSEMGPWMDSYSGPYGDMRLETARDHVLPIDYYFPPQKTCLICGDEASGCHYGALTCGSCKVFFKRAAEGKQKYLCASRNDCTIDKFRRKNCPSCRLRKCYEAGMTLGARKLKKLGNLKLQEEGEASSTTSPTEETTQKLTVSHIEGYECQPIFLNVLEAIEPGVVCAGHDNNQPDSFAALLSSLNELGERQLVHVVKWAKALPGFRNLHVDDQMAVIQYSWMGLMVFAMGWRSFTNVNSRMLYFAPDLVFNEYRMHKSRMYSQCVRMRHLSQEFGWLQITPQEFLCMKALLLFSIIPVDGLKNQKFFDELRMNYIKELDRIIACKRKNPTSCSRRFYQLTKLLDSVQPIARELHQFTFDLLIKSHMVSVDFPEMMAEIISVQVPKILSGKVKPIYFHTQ
Assay Name: Human androgen receptor activity assay (anti-androgen activity, hAR)
Assay type: binding
Test Conditions: human; anti-androgen activity; read-out: IC50 hAR
One number for each entry, as −log10 of the molar value.

Consider the reported pIC50 for these compounds:
CN(C(=O)[C@H]1CC[C@H]2[C@@H]3CC[C@H]4N(C)C(=O)C=C[C@]4(C)[C@H]3CC[C@]12C)C(c1ccccc1)c1ccccc1 [Example 11] = 6.07
CN1C(=O)C=C[C@]2(C)[C@H]3CC[C@]4(C)[C@@H](C(=O)Nc5ccc(Cl)cc5)CC[C@H]4[C@@H]3CC[C@@H]12 [Example 1] = 8.00

Let us move to another entry and its pIC50.
Problem: Requested read-out: pIC50. Entry: CN1C(=O)C=C[C@]2(C)[C@H]3CC[C@]4(C)[C@@H](C(=O)NC(c5ccccc5)c5ccccc5)CC[C@H]4[C@@H]3CC[C@@H]12 [Example 10]
Result: 7.40
